The reader will find reported normalized RNA/DNA level without ligand (log10) values listed item by item below.
B1: library; a variant is named by its letters at N, in order (parent)
chain: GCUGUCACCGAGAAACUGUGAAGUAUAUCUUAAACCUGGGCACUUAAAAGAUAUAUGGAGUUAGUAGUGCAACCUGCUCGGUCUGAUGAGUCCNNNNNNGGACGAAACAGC

# Variants of: B1
# assayInfo: normalized RNA/DNA level without ligand (relative to sTRSVctl = 100) (log10 (% of sTRSVctl)); HEK293T; ligand: cyclic di-GMP (c-di-GMP-II aptamer); higher = less ribozyme self-cleavage, higher mRNA level
# assayConditions: reporter: mCherry (pCS4076), ligand present: no

Consider the following illustrative entries.
May I ask what normalized RNA/DNA level without ligand (log10) has been recorded for UUGCUU ? 1.73

May I ask what normalized RNA/DNA level without ligand (log10) has been recorded for UUUCGG ? 1.8

***
May I ask what normalized RNA/DNA level without ligand (log10) has been recorded for CCGUCA ? 1.59

May I ask what normalized RNA/DNA level without ligand (log10) has been recorded for UGUUGU ? 1.72

May I ask what normalized RNA/DNA level without ligand (log10) has been recorded for AUAGGA ? 1.35

May I ask what normalized RNA/DNA level without ligand (log10) has been recorded for GGGCAG ? 1.82

May I ask what normalized RNA/DNA level without ligand (log10) has been recorded for UCGGUA ? 1.31

May I ask what normalized RNA/DNA level without ligand (log10) has been recorded for UGAACG ? 1.74

May I ask what normalized RNA/DNA level without ligand (log10) has been recorded for UGGCCG ? 1.9

May I ask what normalized RNA/DNA level without ligand (log10) has been recorded for CGGCAA ? 1.28

May I ask what normalized RNA/DNA level without ligand (log10) has been recorded for CUAAGG ? 1.75

meta.source: the supplement of paper PMC6757056
